TARGET_UNDER_TEST: Human immunodeficiency virus type 1 reverse transcriptase (Human immunodeficiency virus 1)
TEST_DESCRIPTION: Inhibition of HIV-1 reverse transcriptase at 0.267 uM incubated for 1 hrs in presence of biotin-labeled dNTPs by ELISA assay relative to control
PARAMETER_MEASURED: inhibition (%)
Write the number in % without appending the unit.

Solved entries (count: 2):
SMILES_RECORD: Cc1cc(C#N)cc(C)c1Oc1nc(Nc2ccc(-c3cn(CCc4ccsc4)nn3)cc2)nc2ccsc12
TARGET_UNDER_TEST: Human immunodeficiency virus type 1 reverse transcriptase (Human immunodeficiency virus 1)
inhibition / %: 1.9

SMILES_RECORD: Cc1cc(C#N)cc(C)c1Oc1nc(Nc2ccc(-c3cn(-c4cc5ccccc5s4)nn3)cc2)nc2ccsc12
TARGET_UNDER_TEST: Human immunodeficiency virus type 1 reverse transcriptase (Human immunodeficiency virus 1)
inhibition / %: 0.1

Tell me the measured inhibition of Cc1cc(C#N)cc(C)c1Oc1nc(Nc2ccc(-c3cn(Cc4cccc([N+](=O)[O-])c4)nn3)cc2)nc2ccsc12 , please.
0.9
